# System: murine TTC39C mRNA
# Test details: Dose-dependent antisense inhibition of murine TTC39C in mouse primary hepatocytes
# Type: cell-based
# Test parameters: 4000.0 nM, electroporation, ~16 h
Oligonucleotides are written 5' to 3', each unit as a sugar letter and its base; * is a phosphorothioate linkage, no mark a phosphodiester; rarer units and linkages stand in square brackets, end groups in braces. Plain capitals give the bases only. e = 2'-O-(2-methoxyethyl) (MOE); [5mC] = 5-methylcytosine; d = 2'-deoxy (DNA)
Known percent inhibition of TTC39C mRNA of a selection of substances
Answer format: numeric, % implied, no suffix.

Consider the worked cases shown below.
For ISIS 474666: 5-10-5 MOE gapmer antisense oligonucleotide targeting murine TTC39C (antisense e[5mC]*eA*eA*eT*e[5mC]*dA*dT*dG*d[5mC]*dT*dG*d[5mC]*dA*d[5mC]*d[5mC]*eA*eG*e[5mC]*e[5mC]*eT) on murine TTC39C mRNA, measured percent inhibition of TTC39C mRNA was 92

For ISIS 474610: 5-10-5 MOE gapmer antisense oligonucleotide targeting murine TTC39C (antisense eT*eT*eA*eA*eG*dA*dA*d[5mC]*dA*dA*dG*dT*dT*dG*dT*eG*e[5mC]*e[5mC]*e[5mC]*e[5mC]) on murine TTC39C mRNA, measured percent inhibition of TTC39C mRNA was 65

Next:
For ISIS 474543: 5-10-5 MOE gapmer antisense oligonucleotide targeting murine TTC39C (antisense e[5mC]*e[5mC]*eA*eG*eG*dT*dG*dG*d[5mC]*dT*dT*dT*dG*dG*d[5mC]*eT*eT*eG*eG*eG) on murine TTC39C mRNA, measured percent inhibition of TTC39C mRNA was 88

For ISIS 474521: 5-10-5 MOE gapmer antisense oligonucleotide targeting murine TTC39C (antisense eG*eG*e[5mC]*eT*eT*dT*d[5mC]*d[5mC]*dT*dA*dA*dG*dG*dA*dT*e[5mC]*e[5mC]*eA*e[5mC]*e[5mC]) on murine TTC39C mRNA, measured percent inhibition of TTC39C mRNA was 92

For ISIS 474609: 5-10-5 MOE gapmer antisense oligonucleotide targeting murine TTC39C (antisense e[5mC]*eG*eT*eA*eG*dT*dA*dG*d[5mC]*dA*d[5mC]*dT*dG*dG*dG*eA*e[5mC]*e[5mC]*eA*e[5mC]) on murine TTC39C mRNA, measured percent inhibition of TTC39C mRNA was 90

For ISIS 474532: 5-10-5 MOE gapmer antisense oligonucleotide targeting murine TTC39C (antisense eG*eT*eT*eG*eT*dG*d[5mC]*d[5mC]*d[5mC]*d[5mC]*dA*dT*d[5mC]*d[5mC]*dA*e[5mC]*eA*eT*e[5mC]*eA) on murine TTC39C mRNA, measured percent inhibition of TTC39C mRNA was 94

For ISIS 474540: 5-10-5 MOE gapmer antisense oligonucleotide targeting murine TTC39C (antisense e[5mC]*e[5mC]*eA*e[5mC]*eT*dG*dG*dG*dA*dG*dT*dT*dT*dA*dT*e[5mC]*eA*e[5mC]*eT*eG) on murine TTC39C mRNA, measured percent inhibition of TTC39C mRNA was 92

For ISIS 474535: 5-10-5 MOE gapmer antisense oligonucleotide targeting murine TTC39C (antisense eT*e[5mC]*e[5mC]*eA*e[5mC]*dT*dT*d[5mC]*dA*dT*dG*dG*d[5mC]*dA*dA*eG*e[5mC]*eT*eT*eG) on murine TTC39C mRNA, measured percent inhibition of TTC39C mRNA was 83

For ISIS 474538: 5-10-5 MOE gapmer antisense oligonucleotide targeting murine TTC39C (antisense eT*eA*eG*e[5mC]*eA*d[5mC]*dG*d[5mC]*dA*dT*dA*dT*dG*dG*d[5mC]*eG*eG*eG*eA*e[5mC]) on murine TTC39C mRNA, measured percent inhibition of TTC39C mRNA was 88

For ISIS 474592: 5-10-5 MOE gapmer antisense oligonucleotide targeting murine TTC39C (antisense eG*eA*eA*eG*e[5mC]*dA*dT*dA*dT*dT*dG*dA*dT*dG*d[5mC]*e[5mC]*eA*eG*e[5mC]*e[5mC]) on murine TTC39C mRNA, measured percent inhibition of TTC39C mRNA was 84

For ISIS 474607: 5-10-5 MOE gapmer antisense oligonucleotide targeting murine TTC39C (antisense eT*e[5mC]*eA*eA*eT*d[5mC]*dA*dT*dG*d[5mC]*dT*dG*d[5mC]*dA*d[5mC]*e[5mC]*eA*eG*e[5mC]*e[5mC]) on murine TTC39C mRNA, measured percent inhibition of TTC39C mRNA was 92

For ISIS 474596: 5-10-5 MOE gapmer antisense oligonucleotide targeting murine TTC39C (antisense e[5mC]*eG*eA*eT*eT*dA*d[5mC]*dA*d[5mC]*d[5mC]*dA*dG*d[5mC]*d[5mC]*dT*e[5mC]*eT*eT*e[5mC]*eA) on murine TTC39C mRNA, measured percent inhibition of TTC39C mRNA was 90

For ISIS 474601: 5-10-5 MOE gapmer antisense oligonucleotide targeting murine TTC39C (antisense eG*eG*e[5mC]*e[5mC]*eA*dT*dA*dT*d[5mC]*d[5mC]*dA*dA*dA*dG*d[5mC]*eT*e[5mC]*eA*e[5mC]*eA) on murine TTC39C mRNA, measured percent inhibition of TTC39C mRNA was 87

For ISIS 474598: 5-10-5 MOE gapmer antisense oligonucleotide targeting murine TTC39C (antisense e[5mC]*e[5mC]*e[5mC]*eA*e[5mC]*d[5mC]*dT*dT*dT*dT*dA*dT*dG*dT*dA*eG*eG*e[5mC]*e[5mC]*eG) on murine TTC39C mRNA, measured percent inhibition of TTC39C mRNA was 83

Origin of measurements: patent US20120270929A1
